# MEASUREMENT_TARGET: T1, human CD3 on CD3+ Jurkat cells (human, UniProt P07766 23-207)
# T1 construct: whole, on cells; Native CD3 complex on cells; the other CD3 chains are not specified for this assay; also called Human CD3+ Jurkat
# T1 sequence (P07766 23-207): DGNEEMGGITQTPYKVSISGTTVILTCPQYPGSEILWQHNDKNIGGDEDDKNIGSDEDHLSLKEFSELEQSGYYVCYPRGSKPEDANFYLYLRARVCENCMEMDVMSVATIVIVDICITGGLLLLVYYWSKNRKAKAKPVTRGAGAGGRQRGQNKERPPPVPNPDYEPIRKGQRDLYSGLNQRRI
# TEST_NAME: flow cytometry, 100 nM IgG on CD3+ Jurkat cells, pH 6.0
ASSAY_METRIC: MFI pH 6.0
Respond with a number, then the unit of measure.

Recorded MFI pH 6.0, per entry:
**Q:** Looking for the measured MFI pH 6.0 of SAD10319_P02_H06 (ADI-48633) (antibody, V domains shown, IgG; also called Ab16) VH: QVQLVQSGAEVKKPGASVKVSCKASGYTFTAYVMHWVRQAPGQRLEWMGSIDAGTGNTKYSQKFQGRVTITRDTSASTAYMELSSLRSEDTAVYYCARDAYGHYFYDHWGQGTLVTVSS VL: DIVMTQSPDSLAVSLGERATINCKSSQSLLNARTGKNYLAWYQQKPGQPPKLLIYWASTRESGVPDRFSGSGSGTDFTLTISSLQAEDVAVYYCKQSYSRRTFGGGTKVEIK , can you help?
**A:** 2790 MFI

**Q:** SAD10318_P01_H03 (ADI-48591) (antibody, V domains shown, IgG; also called Ab102) VH: QVQLVQSGAEVKKPGASVKVSCKASGFNIKDYYMHWVRQAPGQRLEWMGWIDLENANTIYDAKFQGRVTITRDTSASTAYMELSSLRSEDTAVYYCAHDAYGHYFYDVWGQGTLVTVSS VL: DIVMTQSPDSLAVSLGERATINCKSSQSLLNARTGHNYLAWYQQKPGQPPKLLIYWASTRESGVPDRFSGRGSGTDFTLTISSLQAEDVAVYYCKQSYHHRTFGGGTKVEIK ?
**A:** 4430 MFI

Continuing:
**Q:** Using the record for SAD10318_P01_D02 (ADI-48584) (antibody, V domains shown, IgG; also called Ab3) VH: QVQLVQSGAEVKKPGASVKVSCKASGFNIKDYYMHWVRQAPGQRLEWMGWIDLENANTIYDAKFQGRVTITRDTSASTAYMELSSLRSEDTAVYYCARDAHHRYFYDVWGQGTLVTVSS VL: DIVMTQSPDSLAVSLGERATINCKSSQSLLNARTGKNHLAWYQQKPGQPPKLLIYWASTRESGVPDRFSGSGSGTDFTLTISSLQAEDVAVYYCKQSHSHRTFGGGTKVEIK , report its MFI pH 6.0.
**A:** 2180 MFI
